Value source: ChEMBL document CHEMBL5291721

Can you tell me AC50 for the items I'm about to list?
# System under test: Gamma-aminobutyric acid receptor subunit alpha-1 (Rattus norvegicus); note: assay procedure not described here
# Sequence (P62813 whole entry): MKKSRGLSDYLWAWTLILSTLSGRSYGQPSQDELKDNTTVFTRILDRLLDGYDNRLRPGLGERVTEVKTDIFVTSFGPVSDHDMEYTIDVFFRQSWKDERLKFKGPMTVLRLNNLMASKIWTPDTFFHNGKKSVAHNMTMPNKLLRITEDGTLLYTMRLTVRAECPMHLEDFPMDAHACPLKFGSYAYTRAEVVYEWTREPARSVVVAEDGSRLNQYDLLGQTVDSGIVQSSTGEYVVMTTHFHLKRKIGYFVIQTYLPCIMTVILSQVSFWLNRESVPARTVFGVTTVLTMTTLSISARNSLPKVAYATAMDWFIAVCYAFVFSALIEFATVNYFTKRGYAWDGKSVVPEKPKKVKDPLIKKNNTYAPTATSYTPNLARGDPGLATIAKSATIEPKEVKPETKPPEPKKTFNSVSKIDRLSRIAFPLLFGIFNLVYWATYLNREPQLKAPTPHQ

Query CC(C(=O)O)c1ccc(-c2ccccc2)c(F)c1 (configuration not stated) yields AC50 of > 10 µM

Query `Oc1ccc2c(c1)CC[C@H](c1ccccc1)[C@@H]2c1ccc(OCCN2CCCC2)cc1` yields AC50 of > 30 µM

Query CC12CC3CC(C)(C1)CC(N)(C3)C2 [MEMANTINE] yields AC50 of > 10 µM

Query CCN(CC)CCNC(=O)c1cc(S(C)(=O)=O)ccc1OC [TIAPRIDE] yields AC50 of > 30 µM

Query `CC(=O)[C@]1(O)Cc2c(O)c3c(c(O)c2[C@@H](O[C@H]2C[C@H](N)[C@H](O)[C@H](C)O2)C1)C(=O)c1ccccc1C3=O` yields AC50 of > 30 µM

Query `C=C1/C(=C\C=C2/CCC[C@]3(C)[C@@H]([C@H](C)/C=C/[C@@H](O)C4CC4)CC[C@@H]23)C[C@@H](O)C[C@@H]1O` yields AC50 of > 30 µM

Query `CCN(CC)CCNC(=O)c1c(C)[nH]c(/C=C2\C(=O)Nc3ccc(F)cc32)c1C` yields AC50 of > 30 µM

Query `O=C1CN=C(c2ccccn2)c2cc(Br)ccc2N1` yields AC50 of > 10 µM

Query C[C@]12C=CC(=O)N[C@@H]1CC[C@@H]1[C@@H]2CC[C@]2(C)[C@@H](C(=O)Nc3cc(C(F)(F)F)ccc3C(F)(F)F)CC[C@@H]12 [DUTASTERIDE] yields AC50 of > 10 µM

Query `CC(C)c1nc(N(C)S(C)(=O)=O)nc(-c2ccc(F)cc2)c1/C=C/[C@@H](O)C[C@@H](O)CC(=O)O` yields AC50 of > 30 µM

Query `[H]/N=C(/N)N/C(=N/[H])NCCc1ccccc1` yields AC50 of > 10 µM

Query CCCCCC(=O)O[C@]1(C(C)=O)CC[C@H]2[C@@H]3CCC4=CC(=O)CC[C@]4(C)[C@H]3CC[C@@]21C [HYDROXYPROGESTERONE CAPROATE] yields AC50 of > 30 µM

Query CCC(=O)O[C@H]1CC[C@H]2[C@@H]3CCC4=CC(=O)CC[C@]4(C)[C@H]3CC[C@]12C [TESTOSTERONE PROPIONATE] yields AC50 of > 10 µM

Query CC(=O)OCC(=O)[C@@]1(O)[C@H](C)C[C@H]2[C@@H]3CCC4=CC(=O)C=C[C@]4(C)[C@@]3(F)[C@@H](O)C[C@@]21C [DEXAMETHASONE ACETATE] yields AC50 of > 10 µM

Query COc1ccc(CC2c3cc(OC)c(OC)cc3CC[N+]2(C)CCC(=O)OCCCCCOC(=O)CC[N+]2(C)CCc3cc(OC)c(OC)cc3C2Cc2ccc(OC)c(OC)c2)cc1OC (configuration not stated) yields AC50 of > 30 µM

Query `CC(=O)[C@@]1(O)CC[C@H]2[C@@H]3C=C(Cl)C4=CC(=O)[C@@H]5C[C@@H]5[C@]4(C)[C@H]3CC[C@@]21C` yields AC50 of > 10 µM

Query CNC1=Nc2ccc(Cl)cc2C(c2ccccc2)=[N+]([O-])C1 [CHLORDIAZEPOXIDE] yields AC50 of > 10 µM

Query `CCCCC1C(=O)N(c2ccccc2)N(c2ccccc2)C1=O` yields AC50 of > 10 µM

Query `O=C1CN(/N=C/c2ccc(-c3ccc([N+](=O)[O-])cc3)o2)C(O)=N1` yields AC50 of > 10 µM

Query `C/C(=C\C(=O)OCCCCCCCCC(=O)O)C[C@@H]1OC[C@H](C[C@@H]2O[C@H]2[C@@H](C)[C@H](C)O)[C@@H](O)[C@H]1O` yields AC50 of > 10 µM

Query `CCCC(CCC)C(=O)O` yields AC50 of > 10 µM

Query CC(C)NCC(O)c1ccc(O)c(O)c1 (configuration not stated) yields AC50 of > 10 µM

Query `Cc1cc2cc3c(C)cc(=O)oc3c(C)c2o1` yields AC50 of > 10 µM

Query COc1cc2nc(N3CCN(C(=O)C4CCCO4)CC3)nc(N)c2cc1OC (configuration not stated) yields AC50 of > 10 µM

Query COc1cc2c(cc1OC)C(CCc1ccc(Cl)cc1)N(C)CC2 (configuration not stated) yields AC50 of > 10 µM

Query `CC(=O)N[C@@H](CS)C(=O)O` yields AC50 of > 30 µM

Query Cc1cccc(N2CC(CO)OC2=O)c1 (configuration not stated) yields AC50 of > 30 µM
